Target: human GLP-1R (human, UniProt P43220 24-463)
Experiment: cell-based or functional assay
Square brackets hold non-standard residues; d marks the D form. Side chains are listed from the residue outwards. αMeF = C[C@](N)(Cc1ccccc1)C(=O)O; Iva = CC[C@](C)(N)C(=O)O; Oda = not defined here; Aib = CC(C)(N)C(=O)O
attribute-measured: Agonist activity (EC50), Cre-luc reporter assay (pM)

binder	value-units	recorded-measurement
Me-Y[Aib]EGT[αMeF]TSDK([Gly-Gly-Gly-Gly-Pal])SK[Aib]LDKQRQ[Iva]EFVRHLLNK[Aib]TRQRY-NH2	pM	73
Me-Y[Aib]EGT[αMeF]TSDK([Gly-Gly-Gly-Gly-Oda])[Aib]I[Aib]LEKQRQ[Iva]EFVRHLLNK[Aib]TRQRY-NH2 (reading uncertain; also: printed as Me-Tyr-Aib-Glu-Gly-Thr-αMePhe-Thr-Ser-Asp-Lys(-Gly-Gly-Gly-Gly-Oda)-Aib-Ile-Aib-Leu-Glu-Lys-Gln-Arg-Gln-Iva-Glu-Phe-Val-Arg-His-Leu-Leu-Asn-Lys-Aib-Thr-Arg-Gln-Arg-Tyr-NH2)	pM	1100
Me-Y[Aib]EGT[αMeF]TSDK([Gly-Gly-Gly-Gly-Oda])SI[Aib]LDKQRQ[Iva]EFVRHLLNK[Aib]TRQRY-NH2 (reading uncertain; also: printed as Me-Tyr-Aib-Glu-Gly-Thr-αMePhe-Thr-Ser-Asp-Lys(-Gly-Gly-Gly-Gly-Oda)-Ser-Ile-Aib-Leu-Asp-Lys-Gln-Arg-Gln-Iva-Glu-Phe-Val-Arg-His-Leu-Leu-Asn-Lys-Aib-Thr-Arg-Gln-Arg-Tyr-NH2)	pM	1900
H-Y[Aib]EGT[αMeF]TSDK([Gly-Gly-Gly-Gly-Pal])[Aib]I[Aib]LDKQAQ[Iva]EFVRHLLNK[Aib]TRQRY-NH2	pM	42
H-Y[Aib]EGT[αMeF]TSDK([Gly-Gly-Gly-Gly-Pal])SI[Aib]LEKQRQ[Iva]EFVRHLLNK[Aib]TRQRY-NH2	pM	53
H-Y[Aib]EGT[αMeF]TSDK([Gly-Gly-Gly-Gly-Oda])[Aib]K[Aib]LDKQRQ[Iva]EFVRHLLNK[Aib]TRQRY-NH2 (reading uncertain; also: printed as H-Tyr-Aib-Glu-Gly-Thr-αMePhe-Thr-Ser-Asp-Lys(-Gly-Gly-Gly-Gly-Oda)-Aib-Lys-Aib-Leu-Asp-Lys-Gln-Arg-Gln-Iva-Glu-Phe-Val-Arg-His-Leu-Leu-Asn-Lys-Aib-Thr-Arg-Gln-Arg-Tyr-NH2)	pM	940
